Experiment: Compound exposure in rat brain and plasma after oral dosing (DMPK analysis)
Assay type: in vivo
Details: male, Sprague Dawley, Brain, 30 mg/kg p.o., 3 hours post dose, read-out: Exp (exposure)
observed-property: concentration at 3 h (ng/g)
// note: answer is a bare numeric in ng/g

Take a look at these entries with their results.
{"smiles-text": "[2H]C([2H])([2H])Oc1ccc(C(=O)Nc2ccc(F)c([C@]34COC[C@@]3(F)C[C@](C)(F)C(N)=N4)c2)nc1", "concentration at 3 h (ng/g)": 951}
{"smiles-text": "COc1cnc(C(=O)Nc2ccc(F)c([C@]34COC[C@@]3(F)C[C@](C)(F)C(N)=N4)c2)cn1", "concentration at 3 h (ng/g)": 695}
{"smiles-text": "COc1cnc(C(=O)Nc2ccc(F)c([C@]34COC[C@@]3(F)C[C@@](C)(F)C(N)=N4)c2)cn1", "concentration at 3 h (ng/g)": 479}
{"smiles-text": "C[C@]1(F)C[C@]2(F)COC[C@]2(c2cc(NC(=O)c3ccc(F)cn3)ccc2F)N=C1N", "concentration at 3 h (ng/g)": 136}

Query :: Recall and state the measured concentration at 3 h for [2H]C([2H])([2H])Oc1ccc(C(=O)Nc2ccc(F)c([C@]34COC[C@H]3C[C@@](F)(CF)C(N)=N4)c2)nc1 .
Result :: 776
